Source of measurements: PubChem BioAssay AID1347426

# Experiment Description: Novel Modifiers of Survival Motor Neuron (SMN) Protein: Gene Identification via Genome-wide siRNA Screen;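 note: luminescence tracks full-length SMN protein made from the SMN2 reporter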
# Settings: HEK293T SMN2-luciferase reporter, siRNA knockdown, 72 h; actives lie on both sides
The whole screen tested about 31,000 sequences, of which about 1,400 (4.5%) were called active. This excerpt belongs to a sample that is enriched for actives.
Experimental Readout: median seed-adjusted z-score

Below are worked cases with known answers.
Seq Text	median seed-adjusted z-score
CUAUCCAACUCAAACGAUUTT against USP9Y	0.012 (inactive)
GGCGAGAAGAGCAACGUAATT against DDX46	-1.24 (active)
CACCUACUGUGAUGACAGATT against EPAS1	-0.166 (inactive)
AGAUGUACGAGGAAAAGUATT against WNK4	0.385 (inactive)
ACAGGAUUCCAGAAAUGGATT against REG1A	0.596 (inactive)
CCGAAUGAAUGGUGAUAAATT against TUSC3	0.138 (inactive)
GCAAGACCAUCAACAAGAUTT against CHRNE	0.349 (inactive)
CACAAUGAGUUAACUGAUATT against LILRB4	-0.104 (inactive)
CCACCGAGCUAACAUCUGATT against MFAP3L	1.03 (active)

Turning now to a further record.
## Input Fill in: median seed-adjusted z-score of GGAGUUCGUUCAGAGACCATT against MOCS2 is ___
## Output 0.0327 (inactive)

* * *

# Experiment Description: Novel Modifiers of Survival Motor Neuron (SMN) Protein: Gene Identification via Genome-wide siRNA Screen;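 note: luminescence tracks full-length SMN protein made from the SMN2 reporter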
# Settings: HEK293T SMN2-luciferase reporter, siRNA knockdown, 72 h; actives lie on both sides
Out of some 31,000 sequences screened, about 1,400 (4.5%) were called active. This is one part of a sample in which actives are shown more often than they occur.
Experimental Readout: median seed-adjusted z-score
// print number alone

Below are worked cases with known answers.
Seq Text	median seed-adjusted z-score
CGGACCGGCAGAGAACAAATT against PLA2G10	1.07
GGAUGUAUGACAUCUGUAATT against STC1	-1.36

## Input Fill in: median seed-adjusted z-score of GGAGAACCAUAGAAAACCATT against RIPK3 is ___
## Output 0.123

## Input Fill in: median seed-adjusted z-score of GGAAAAACCAACCAAGUUATT against RUFY1 is ___
## Output 0.119

## Input Fill in: median seed-adjusted z-score of GCUUACGGCUUGUACCUGATT against SFRS17A is ___
## Output -0.389

## Input Fill in: median seed-adjusted z-score of CGACCAAGAUUAUGGAAUUTT against ADAMTS17 is ___
## Output 0.257

## Input Fill in: median seed-adjusted z-score of CGAAGUUCACUAUCGAACATT against DNAH11 is ___
## Output 0.104

## Input Fill in: median seed-adjusted z-score of AGACCGUAAUUAUCGUCCUTT against EDG1 is ___
## Output -0.316

## Input Fill in: median seed-adjusted z-score of GCAAAUGGGAGGUUGGAAATT against ZIK1 is ___
## Output -0.0627

## Input Fill in: median seed-adjusted z-score of GCUGGUGACUGAGUUUUCATT against NOB1 is ___
## Output -0.0844

## Input Fill in: median seed-adjusted z-score of CGCCGACUGUCAUGCUUCATT against FCN1 is ___
## Output 0.346

## Input Fill in: median seed-adjusted z-score of GAAUCUAUGAGCUUCGAAATT against PSMB5 is ___
## Output -1.37

## Input Fill in: median seed-adjusted z-score of AGCCUUUAGUGUCCGUUCATT against ZNF347 is ___
## Output 0

## Input Fill in: median seed-adjusted z-score of GGUUGACAAAUGCAGGAUATT against RIOK2 is ___
## Output -0.16

## Input Fill in: median seed-adjusted z-score of GGAUCUUCCUUAUUACUCUTT against UBE4A is ___
## Output -0.285

## Input Fill in: median seed-adjusted z-score of AGCUCAACCAUAACGUGAATT against DIRAS2 is ___
## Output -1.25

* * *

# Experiment Description: Novel Modifiers of Survival Motor Neuron (SMN) Protein: Gene Identification via Genome-wide siRNA Screen;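 note: luminescence tracks full-length SMN protein made from the SMN2 reporter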
# Settings: HEK293T SMN2-luciferase reporter, siRNA knockdown, 72 h; actives lie on both sides
Hit rate of the full screen: of about 31,000 sequences, about 1,400 (4.5%) were called active.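 The calls were made as follows: active = median seed-adjusted z-score above 1 or below -1; inactive = the rest.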 This excerpt belongs to a sample that is enriched for actives.
Respond with a class label; see label 1 for active, label 0 for inactive

## Input Any idea what this test logged for GCAUGAAUGCAACCUGAUUTT against DDX55 ?
## Output label 0

## Input Any idea what this test logged for CCGUUUUGGUGAGUCAACATT against RANBP2 ?
## Output label 1

## Input Any idea what this test logged for GGAUCUGACAGACAAUGAUTT against ABCC3 ?
## Output label 0

## Input Any idea what this test logged for GCCUAUGACCUUCUACUUUTT against SLC31A1 ?
## Output label 0

## Input Any idea what this test logged for GGAUCUAUAGUGAUUGUCATT against TFRC ?
## Output label 0

## Input Any idea what this test logged for ACUUAGCACUUUAUAUUUATT against DUSP2 ?
## Output label 0

## Input Any idea what this test logged for UGAUCAUUGUCCCUACAGATT against SERPINA3 ?
## Output label 0

## Input Any idea what this test logged for GGUUCUCAGGAGCACCAGATT against OASL ?
## Output label 1

* * *

# Experiment Description: Novel Modifiers of Survival Motor Neuron (SMN) Protein: Gene Identification via Genome-wide siRNA Screen;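 note: luminescence tracks full-length SMN protein made from the SMN2 reporter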
# Settings: HEK293T SMN2-luciferase reporter, siRNA knockdown, 72 h; actives lie on both sides
In all, about 31,000 sequences went through this assay and about 1,400 (4.5%) were called active.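 How the source made its calls: active means median seed-adjusted z-score above 1 or below -1; inactive means the rest.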 The full list was thinned out, with actives kept by preference.
Respond with a class label; see active, inactive

Below are worked cases with known answers.
Seq Text	Class Name
GAAGUUUGACCAUGACUUUTT against ACCN5	inactive
GAAGCUCUCUUGACUAUGATT against FKBP3	inactive
GAAUUUGUUCAUUAUCGUATT against UBE3A	inactive
CAAGGAGAGGCAUAACGUATT against DNASE1L3	inactive
CAUGGGCUCUAUUACGCUUTT against SPEN	active
UCGUGGUUGUUAAUUUGAATT against CSNK1E	inactive
CAGUGGAUAUCAAGCUUAATT against OPA1	inactive
GACAGUCACUGAGCAUAGATT against PKD1L2	active
GAUGAUCAGCUAUGAAAAATT against ZNF780A	inactive
CCUCAUGUCGGGCAUCUUATT against EGR4	inactive

## Input Any idea what this test logged for CAGGUUCUCUAAUUGAACATT against NFX1 ?
## Output inactive

## Input Any idea what this test logged for CGGAUUCCAGGAAUGCUAATT against EIF5B ?
## Output active

## Input Any idea what this test logged for ACCUAGAAGUGAACUGUGATT against GP1BA ?
## Output inactive

* * *

# Experiment Description: Novel Modifiers of Survival Motor Neuron (SMN) Protein: Gene Identification via Genome-wide siRNA Screen;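 note: luminescence tracks full-length SMN protein made from the SMN2 reporter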
# Settings: HEK293T SMN2-luciferase reporter, siRNA knockdown, 72 h; actives lie on both sides
About 1,400 (4.5%) of roughly 31,000 sequences were called active. The entries come from a sample that favours actives as a whole.
// NB: equality with 0.004 counts as no (0); only median seed-adjusted z-score strictly below is yes (1)

Below are worked cases with known answers.
Seq Text	Class Name
UCACUUUCCCUGUAAAUAUTT against CD84	no (0)
GAAUUGCUCCUAAUGUCAATT against MYB	no (0)

## Input Determine if AGGACGGUGCAGUACAGAATT against ZBTB46 shows median seed-adjusted z-score strictly lower than 0.004.
## Output no (0)

## Input Determine if GAGUCUACCUAAUUCUGGATT against AURKA shows median seed-adjusted z-score strictly lower than 0.004.
## Output yes (1)

* * *

# Experiment Description: Novel Modifiers of Survival Motor Neuron (SMN) Protein: Gene Identification via Genome-wide siRNA Screen;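 note: luminescence tracks full-length SMN protein made from the SMN2 reporter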
# Settings: HEK293T SMN2-luciferase reporter, siRNA knockdown, 72 h; actives lie on both sides
Among all 31,000 sequences or so, about 1,400 (4.5%) were called active. This is one part of a sample in which actives are shown more often than they occur.
Experimental Readout: median seed-adjusted z-score
// print number alone

Below are worked cases with known answers.
Seq Text	median seed-adjusted z-score
GCUCGAGUGGAAGAACUCATT against GLMN	0
GGUUGAAGCUUACUCCGGATT against DHX9	-0.687

## Input Fill in: median seed-adjusted z-score of CAUGUUCACUGCUACCGAUTT against LPP is ___
## Output -0.103

## Input Fill in: median seed-adjusted z-score of GGAUGUCGGCAACACGGAATT against MYBPC3 is ___
## Output 0.304

## Input Fill in: median seed-adjusted z-score of GCCUGACCCGUGAGACAAATT against THY1 is ___
## Output -1.1

## Input Fill in: median seed-adjusted z-score of CAGUUACUAUAAAAACCGATT against ZNF711 is ___
## Output 0.254

## Input Fill in: median seed-adjusted z-score of GGAACACUAUGAUGAGUUUTT against U2AF1 is ___
## Output 2.08

## Input Fill in: median seed-adjusted z-score of GGAUGUUUUCGAAACGCAUTT against BRDT is ___
## Output -0.357

## Input Fill in: median seed-adjusted z-score of CGAGGAGCUGAAUUCCCAATT against SLC9A3R1 is ___
## Output -0.418

## Input Fill in: median seed-adjusted z-score of GCAUAUUCCAAACUAGUGATT against STARD6 is ___
## Output 0.0605

## Input Fill in: median seed-adjusted z-score of CAGAUAUGAUUGGUGUAAATT against CABP1 is ___
## Output -0.192

## Input Fill in: median seed-adjusted z-score of CAAUCCUGUAUCUACCGUATT against OVCH1 is ___
## Output 0.0211

## Input Fill in: median seed-adjusted z-score of GACUCGUGGUUUGAAGUGATT against ZNRF1 is ___
## Output -0.808

## Input Fill in: median seed-adjusted z-score of CCCAGAUCAUAUACUCCUATT against LYPLAL1 is ___
## Output -0.425

## Input Fill in: median seed-adjusted z-score of CGGGAGUUUUUGGAACUGATT against MMS19L is ___
## Output 0.898

## Input Fill in: median seed-adjusted z-score of CGUGGAAUACUAGAGCAAATT against ACTL6A is ___
## Output 1.11

## Input Fill in: median seed-adjusted z-score of UCACUAUCAGUACCCAUUATT against CHRNB1 is ___
## Output 0.16

## Input Fill in: median seed-adjusted z-score of GGCUUUUGCCCUAUCCAUUTT against WNK4 is ___
## Output 0.385
